assay: Apparent maximum solubility of SHetA2 NCs and SHetA2 NC-MPs in PBS containing 0.05% SDS; format: physicochemical; conditions: aqueous with cosolvent or surfactant or cyclodextrin, thermodynamic from solid, at first 5 min, read-out: apparent maximum solubility (highest drug solubility)
metric-name: solubility at 5 min (µg/mL)

In [3]: df
Out[3]:
                                smiles_data   val
0  CC1(C)CC(C)(C)c2cc(NC(=S)Nc3ccc([N+](=O)[O-])cc3)ccc2S1  0.48
